- ASSAYED TARGET: Inadl_10, Q8NI35
- Sequence (Q8NI35 1673-1763): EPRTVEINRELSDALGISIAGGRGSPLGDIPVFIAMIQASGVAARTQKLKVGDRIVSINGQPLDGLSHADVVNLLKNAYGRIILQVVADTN
- ASSAY EXPLANATION: holdup assay
- Set-up: key: below the threshold = too weak to quantify, mostly under pKd 3.1 to 4
- ASSAY CONDITIONS: plain residues with an end cap or a label only (N-terminal biotin on a linker: ttds)
OBSERVABLE: pKd

binder="PPRQRSETQV [HPV82-E6, Q9IR59]" observable=pKd data_value="below the threshold"
binder="FVETQHQTQV [FAT3, Q8TDW7]" observable=pKd data_value=3.5
binder="SGGKRKETLV [NET1, Q7Z628]" observable=pKd data_value="below the threshold"
binder="PSRDRKETSI [RALBP1, Q15311]" observable=pKd data_value="below the threshold"
